- system.name: Metabotropic glutamate receptor 2 (Homo sapiens, UniProt Q14416)
- protocol.summary: Allosteric modulation of human mGluR2 expressed in CHO cells by [35S]GTPgammaS binding assay
- Sequence (Q14416 whole entry): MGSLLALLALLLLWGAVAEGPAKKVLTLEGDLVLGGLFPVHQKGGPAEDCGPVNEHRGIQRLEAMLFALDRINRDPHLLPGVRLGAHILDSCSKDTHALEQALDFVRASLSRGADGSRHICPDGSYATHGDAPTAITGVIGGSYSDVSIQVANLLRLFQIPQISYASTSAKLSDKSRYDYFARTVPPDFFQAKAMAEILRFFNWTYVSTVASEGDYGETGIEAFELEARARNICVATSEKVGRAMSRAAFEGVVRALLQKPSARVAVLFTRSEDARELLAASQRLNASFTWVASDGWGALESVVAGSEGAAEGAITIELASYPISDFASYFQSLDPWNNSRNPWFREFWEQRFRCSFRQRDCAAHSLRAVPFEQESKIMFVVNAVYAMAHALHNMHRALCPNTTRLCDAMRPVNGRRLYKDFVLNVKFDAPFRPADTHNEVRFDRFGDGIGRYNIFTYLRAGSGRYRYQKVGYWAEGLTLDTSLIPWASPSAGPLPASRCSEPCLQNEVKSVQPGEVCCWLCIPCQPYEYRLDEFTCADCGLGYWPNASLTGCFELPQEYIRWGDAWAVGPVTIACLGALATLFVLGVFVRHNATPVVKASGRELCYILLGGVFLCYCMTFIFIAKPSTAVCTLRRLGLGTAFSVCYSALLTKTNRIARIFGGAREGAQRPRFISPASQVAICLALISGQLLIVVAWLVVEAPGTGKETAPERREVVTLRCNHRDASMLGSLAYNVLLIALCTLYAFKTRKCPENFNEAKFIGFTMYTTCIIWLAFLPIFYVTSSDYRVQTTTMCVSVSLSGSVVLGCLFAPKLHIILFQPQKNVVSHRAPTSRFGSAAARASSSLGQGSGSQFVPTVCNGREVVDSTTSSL
# key: entry, value: EC50

molecule	system.name	result
CCCc1cnc2c(C#N)c(N3CCN(c4ncccn4)CC3)ccn12	Metabotropic glutamate receptor 2 (Homo sapiens, UniProt Q14416)	> 3.16 µM

Fill in reported EC50 for this entry: N#Cc1c(N2CCN(c3ccccc3)CC2)ccn2c(-c3ccccc3)cnc12
> 3.16 µM

# return recorded EC50 for entry CCc1cnc2c(C#N)c(N3CCN(c4ncccn4)CC3)ccn12
> 3.16 µM

###

- system.name: Metabotropic glutamate receptor 2 (Homo sapiens, UniProt Q14416)
- protocol.summary: Allosteric modulation of human mGluR2 expressed in CHO cells by [35S]GTPgammaS binding assay relative to glutamate
- Format: functional, cell-based
- Sequence (Q14416 19-872 limits assumed): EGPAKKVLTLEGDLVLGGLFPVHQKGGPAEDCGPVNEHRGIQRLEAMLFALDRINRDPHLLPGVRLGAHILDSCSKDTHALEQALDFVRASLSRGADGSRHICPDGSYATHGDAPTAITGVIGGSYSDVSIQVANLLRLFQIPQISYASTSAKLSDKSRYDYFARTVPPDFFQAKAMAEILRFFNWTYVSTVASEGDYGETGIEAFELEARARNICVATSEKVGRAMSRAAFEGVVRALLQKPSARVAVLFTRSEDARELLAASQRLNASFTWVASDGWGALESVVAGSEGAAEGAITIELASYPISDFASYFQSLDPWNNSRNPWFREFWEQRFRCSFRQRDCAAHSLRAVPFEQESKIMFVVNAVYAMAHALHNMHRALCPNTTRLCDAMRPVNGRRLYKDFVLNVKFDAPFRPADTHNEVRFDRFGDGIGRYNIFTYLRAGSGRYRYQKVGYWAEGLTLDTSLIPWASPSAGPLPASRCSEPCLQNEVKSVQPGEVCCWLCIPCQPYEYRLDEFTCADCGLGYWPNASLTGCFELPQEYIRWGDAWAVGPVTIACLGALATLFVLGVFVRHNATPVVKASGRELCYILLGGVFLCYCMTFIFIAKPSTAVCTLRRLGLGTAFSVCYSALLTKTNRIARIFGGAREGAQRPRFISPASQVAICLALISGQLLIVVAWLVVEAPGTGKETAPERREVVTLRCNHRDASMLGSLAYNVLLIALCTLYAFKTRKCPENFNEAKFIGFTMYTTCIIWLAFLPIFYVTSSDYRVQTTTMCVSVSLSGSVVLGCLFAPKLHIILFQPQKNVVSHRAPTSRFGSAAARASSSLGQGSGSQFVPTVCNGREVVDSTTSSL
Listing of recorded Emax by entry.
Output spec: scalar in %, unitless text.

Examples with their reported Emax follow.
compound	system.name	readout.number
CCCc1cnc2c(C#N)c(N3CCN(c4ccccc4)CC3)ccn12	Metabotropic glutamate receptor 2 (Homo sapiens, UniProt Q14416)	241
CCc1cnc2c(C#N)c(N3CCN(c4nc(C)cc(C)n4)CC3)ccn12	Metabotropic glutamate receptor 2 (Homo sapiens, UniProt Q14416)	142
N#Cc1c(N2CCN(c3ccccc3)CC2)ccn2c(-c3ccccc3)cnc12	Metabotropic glutamate receptor 2 (Homo sapiens, UniProt Q14416)	73

Please respond with reported Emax (system Metabotropic glutamate receptor 2 (Homo sapiens, UniProt Q14416)) for Cc1cc(C)nc(N2CCN(c3ccn4c(CC(F)(F)F)cnc4c3C#N)CC2)n1 .
128

Find the measured Emax of N#Cc1c(N2CCN(c3ncccn3)CC2)ccn2c(CCC3CC3)cnc12 with Metabotropic glutamate receptor 2 (Homo sapiens, UniProt Q14416) as test system.
229

Tell me its Emax on Metabotropic glutamate receptor 2 (Homo sapiens, UniProt Q14416): Cc1c(OCc2cccc(-c3ccc(C(=O)O)cc3)c2)cc2c(c1C)C(=O)C(C1CCCC1)C2 (stereo not given)
213

Print Metabotropic glutamate receptor 2 (Homo sapiens, UniProt Q14416) Emax for N#Cc1c(-c2ccc(OCc3ccccc3)cc2)ccn2c(CC(F)(F)F)cnc12 .
222

###

Listed here are compounds together with their documented Emax.
- system.name: Metabotropic glutamate receptor 2 (Homo sapiens, UniProt Q14416)
- protocol.summary: Allosteric modulation of human mGluR2 expressed in CHO cells by [35S]GTPgammaS binding assay relative to glutamate
- Format: functional, cell-based
Just the number please, in %, no unit attached.

See these solved cases before continuing.
molecule	system.name	value.kind	units	readout.number
N#Cc1c(-c2ccc(Oc3ccccc3)cc2)ccn2c(CC(F)(F)F)cnc12	Metabotropic glutamate receptor 2 (Homo sapiens, UniProt Q14416)	Emax	%	200
N#Cc1c(-c2ccc(N3CCCCC3)cc2)ccn2c(CC(F)(F)F)cnc12	Metabotropic glutamate receptor 2 (Homo sapiens, UniProt Q14416)	Emax	%	123

Next:
Given N#Cc1c(N2CCN(c3ncccn3)CC2)ccn2c(CC(F)(F)F)cnc12 , respond with its Emax.
231
